- assayed.system: human A2A receptors (Homo sapiens (Human), UniProt P29274)
- Sequence (P29274 whole entry): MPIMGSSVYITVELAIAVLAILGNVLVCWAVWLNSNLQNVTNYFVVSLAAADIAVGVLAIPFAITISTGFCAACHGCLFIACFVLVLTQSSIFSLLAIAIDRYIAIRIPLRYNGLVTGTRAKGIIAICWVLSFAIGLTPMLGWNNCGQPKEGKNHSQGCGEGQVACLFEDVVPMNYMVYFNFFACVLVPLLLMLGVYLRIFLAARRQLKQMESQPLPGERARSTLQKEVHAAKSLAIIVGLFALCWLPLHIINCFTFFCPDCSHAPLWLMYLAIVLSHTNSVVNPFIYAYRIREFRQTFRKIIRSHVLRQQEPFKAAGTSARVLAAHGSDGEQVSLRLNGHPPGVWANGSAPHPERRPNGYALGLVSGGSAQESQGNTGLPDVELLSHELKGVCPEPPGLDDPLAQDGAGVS
- assay.summary: A2A antagonism in cAMP cell-based assay (LANCE cAMP, HEK293)
- applied.conditions: HEK293 cells expressing human A2A receptor
Assignment: determine reported IC50 for the given compounds.
Answers are plain numbers, in nM.

compound: Cc1c(N2CC(C)CC(c3nc4c5cc(F)cc(F)c5nc(N)n4n3)C2)cnn1C(C)C(C)O (single isomer, unassigned) [Example 216]
assayed.system: human A2A receptors (Homo sapiens (Human), UniProt P29274)
IC50, nM: 1
//
compound: COc1cc2nc(N)n3nc(C4CCC(C)N(c5cnn(C(C)C(C)O)c5)C4)nc3c2cc1F (single isomer, unassigned) [Example 236]
assayed.system: human A2A receptors (Homo sapiens (Human), UniProt P29274)
IC50, nM: 1

Lab note: next compound to report on.
Sure, the documented IC50 for COc1cc(F)cc2c1nc(N)n1nc(C3CCC(C)N(c4cnn(C(C)(C)C(C)O)c4)C3)nc21 (single isomer, unassigned) [Example 269] is 1.2

Attribution: patent US11312719B2
